assay-text: Inhibition of yeast farnesyltransferase using dansyl-GCVIA as substrate preincubated for 5 mins measured over 300 secs by continuous fluorescence assay
Set-up: species or system Saccharomyces cerevisiae
measured-attribute: IC50 (µM)
Write the answer as a number in µM, unit excluded.

A selection of reference data follows.
compound | unit-annotation | result-value
C=CCCCCCCC/C(C(=O)O)=C(\C)C(=O)O | µM | 13.4
CCCCCCCCCCCCCCCC/C(C(=O)O)=C(\C)C(=O)O | µM | 65.6
CCCCCCCCCCCCCC/C(C(=O)O)=C(\C)C(=O)O | µM | 16
CC(C)=CCC/C(C)=C/CC/C(C)=C/C/C(C(=O)O)=C(\C)C(=O)O | µM | 2.4

INPUT: Fill in the blank: the reported IC50 of "CCCCSCCCCCCCCC/C(C(=O)O)=C(\C)C(=O)O" is ____.
OUTPUT: 3.5

INPUT: Would you mind doing CCCCCCCCCCCC/C(C(=O)O)=C(\C)C(=O)O [CHAETOMELLIC ACID C] as well?
OUTPUT: 4

---

assay-text: Inhibition of rat farnesyltransferase using dansyl-GCVIA as substrate preincubated for 5 mins measured over 300 secs by continuous fluorescence assay
measured-attribute: IC50 (nM)
Write down the numeric answer in nM and omit the unit.

Example entries begin here.
compound-string | IC50 / nM
C=CCCCCCCC/C(C(=O)O)=C(\C)C(=O)O | 490
CCCCCCCCCCCCCC/C(C(=O)O)=C(\C)C(=O)O | 910
CCCCCCCCCCCCCCCC/C(C(=O)O)=C(\C)C(=O)O | 2600

Lab note: next molecule to report on.
INPUT: May I ask what IC50 has been recorded for "CCCCSCCCCCCCCC/C(C(=O)O)=C(\C)C(=O)O" ?
OUTPUT: 190
